assay.notes: RP, Waters ACQUITY UPLC HSS T3, 100 × 2.1 mm, 50 °C; A: water + 0.1% formic acid, pH 3; B: 30% methanol + 70% acetonitrile + 0.1% formic acid, pH 3; gradient (min/%B) 0/5 1/8 2/15 3/40 4/70 4.5/100 5/100 6.4/100 6.6/5 6.8/5 7/5
condition.label: stereoisomer not certain
Structures can show the parent of a compound that is named as a salt.
Quick reference: LC retention time of the listed items.
readout.type: LC retention time (min)

INSERT INTO results (compound, readout_type, unit_tag, recorded_result) VALUES
  ('Cn1cnc2[nH]c(=O)[nH]c(=O)c21 [7-Methylxanthine]', 'LC retention time', 'min', 1.25),
  ('O=C(O)C1OC(Oc2c[nH]c3ccccc23)C(O)C(O)C1O (stereo not drawn) [Indoxyl beta-d-glucuronide]', 'LC retention time', 'min', 2.94),
  ('O=C(O)c1ccc(O)cc1 [4-Hydroxybenzoic acid]', 'LC retention time', 'min', 2.8),
  ('O=C(O)c1ccc[nH]1 [Pyrrole-2-carboxylic acid]', 'LC retention time', 'min', 2.61),
  ('O=C(O)CCc1cc(O)cc(O)c1 [3-(3,5-Dihydroxyphenyl)propanoic acid]', 'LC retention time', 'min', 2.66),
  ('Cn1c(=O)[nH]c(=O)c2c1[nH]c(=O)n2C [3,7-Dimethyluric acid]', 'LC retention time', 'min', 1.54),
  ('CC(C)C1NC(=O)C2CCCN2C1=O (centres undefined) [Cyclo(Pro-Val)]', 'LC retention time', 'min', 3.1),
  ('Cc1ccc(OS(=O)(=O)O)cc1 [p-Cresol sulfate]', 'LC retention time', 'min', 3.38),
  ('C=CCS(=O)CC(N)C(=O)O (centres undefined) [Alliin]', 'LC retention time', 'min', 0.638),
  ('NCCc1ccc(OS(=O)(=O)O)c(O)c1 [Dopamine 4-O-sulfate]', 'LC retention time', 'min', 0.606),
  ('O=C(O)C1CC(O)CN1 (centres undefined) [Hydroxyproline]', 'LC retention time', 'min', 0.466),
  ('CC(O)C1NC(=O)C2CCCN2C1=O (centres undefined) [Cyclo(Pro-Thr)]', 'LC retention time', 'min', 1.54),
  ('O=C(O)CNC(=O)c1ccc(O)cc1 [4-Hydroxyhippuric acid]', 'LC retention time', 'min', 2.19),
  ('CC(C)(CO)C(O)C(=O)NCCC(=O)O (racemic) [DL-Pantothenic acid]', 'LC retention time', 'min', 2);

----------
Quick reference: LC retention time of the listed items.
assay.notes: RP, Phenomenex Luna Omega Polar C18, 100 × 2.1 mm, 1.6 µm, 40 °C, 0.5 mL/min, estimated dead time 0.44 min; A: water + 0.5% formic acid; B: acetonitrile + 0.5% formic acid; gradient (min/%B) 0/5 3/50 3.1/100 5/100 5.1/5 7/5
condition.label: stereoisomer not certain
readout.type: LC retention time (min)

INSERT INTO results (compound, unit_tag, recorded_result) VALUES
  ('C[n+]1cccc(C(=O)[O-])c1', 'min', 0.58),
  ('OCC1OC(Oc2cc3c(O)cc(O)cc3[o+]c2-c2ccc(O)c(O)c2)C(O)C(O)C1O (stereo not drawn) [Cyanidin 3-O-glucoside]', 'min', 1.76),
  ('Cc1c(C)c2c(c(C)c1O)CCC(C)(CCCC(C)CCCC(C)CCCC(C)C)O2 (stereo not drawn)', 'min', 4.03);
